- subjectOfTest: C-X-C chemokine receptor type 3 (Rattus norvegicus, UniProt Q9JII9)
- Sequence (Q9JII9 whole entry): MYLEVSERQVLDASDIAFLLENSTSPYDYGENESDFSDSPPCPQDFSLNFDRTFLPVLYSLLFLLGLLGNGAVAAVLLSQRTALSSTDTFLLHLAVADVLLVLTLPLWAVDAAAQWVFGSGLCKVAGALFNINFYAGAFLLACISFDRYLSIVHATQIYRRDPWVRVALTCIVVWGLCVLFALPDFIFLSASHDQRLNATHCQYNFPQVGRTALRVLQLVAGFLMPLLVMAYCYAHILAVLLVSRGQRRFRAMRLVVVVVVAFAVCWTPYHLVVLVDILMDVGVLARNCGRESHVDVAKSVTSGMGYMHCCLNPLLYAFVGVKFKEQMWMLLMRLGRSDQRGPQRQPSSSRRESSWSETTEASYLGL
- methodDescription: Antagonist activity at rat CXCR3
measuredProperty: pIC50
Give bare numbers, as −log10 of the molar value.

[
  {
    "chemSmiles": "CCNC(=O)c1cnc(N2CCN(C3CCN(Cc4ccc(Cl)cc4F)CC3)[C@@H](CC)C2)c(Cl)c1",
    "pIC50": 8.80
  },
  {
    "chemSmiles": "C[C@H]1CN(c2ncc(C(=O)NCc3ccc(F)c(F)c3)cc2Cl)CCN1C1CCN(Cc2ccc(Cl)cc2)CC1",
    "pIC50": 8.00
  },
  {
    "chemSmiles": "O=C(NCc1ccc(F)c(F)c1)c1cnc(N2CCN(C3CCN(Cc4ccc(Cl)cc4)CC3)CC2)c(Cl)c1",
    "pIC50": 7.01
  }
]

Task: Endpoint output: pIC50 of CCNC(=O)c1cnc(N2CCN(C3CCN(Cc4ccc(Cl)cc4)CC3)[C@@H](CC)C2)c(Cl)c1 . Value?
Output: 8.92

====

- subjectOfTest: C-X-C chemokine receptor type 3 (Homo sapiens, UniProt P49682)
- Sequence (P49682 whole entry): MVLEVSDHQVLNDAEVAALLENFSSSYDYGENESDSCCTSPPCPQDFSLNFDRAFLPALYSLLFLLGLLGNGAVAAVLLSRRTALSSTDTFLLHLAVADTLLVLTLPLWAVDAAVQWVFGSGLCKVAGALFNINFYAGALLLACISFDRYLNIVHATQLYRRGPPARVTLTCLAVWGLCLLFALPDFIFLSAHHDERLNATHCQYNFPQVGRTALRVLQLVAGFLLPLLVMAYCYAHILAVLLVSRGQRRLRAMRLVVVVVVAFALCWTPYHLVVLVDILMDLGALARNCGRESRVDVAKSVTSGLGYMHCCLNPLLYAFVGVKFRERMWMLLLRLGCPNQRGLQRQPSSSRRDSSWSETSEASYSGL
- methodDescription: Antagonist activity at human CXCR3
measuredProperty: log10 IC50 (log10 of the value in nM)
# values: log10(IC50), units nM

[
  {
    "chemSmiles": "C[C@H]1CN(c2ncc(C(=O)N3CCC3)cc2Cl)CCN1C1CCN(Cc2ccc(Cl)cc2)CC1",
    "resultValue": 2.80
  },
  {
    "chemSmiles": "O=C(NCc1ccc(Cl)c(Cl)c1)c1cnc(N2CCC(N3CCN(Cc4ccc(Cl)cc4)CC3)CC2)c(Cl)c1",
    "resultValue": 3.65
  },
  {
    "chemSmiles": "CNC(=O)c1cnc(N2CCN(C3CCN(Cc4ccc(Cl)cc4)CC3)[C@@H](CC(C)C)C2)c(Cl)c1",
    "resultValue": 2.41
  }
]

Provide log10 IC50 values for the following items, in order.
1. C[C@H]1CN(c2ncc(C(N)=O)cc2Cl)CCN1C1CCN(Cc2ccc(Cl)cc2)CC1
2. CNC(=O)c1cnc(N2CCC(N3CCN(Cc4ccc(Cl)cc4)C[C@@H]3C)CC2)c(Cl)c1
3. CCNC(=O)c1cnc(N2CCN(C3CCN(Cc4ccc(Cl)cc4)CC3)[C@@H](C(C)C)C2)c(Cl)c1
4. C[C@H]1CN(c2ncc(C(=O)NCc3ccc(Cl)c(Cl)c3)cc2Cl)CCN1C1CCN(Cc2ccc(Cl)cc2)CC1
5. C[C@H]1CN(c2ncc(C(=N)N)cc2Cl)CCN1C1CCN(Cc2ccc(Cl)cc2)CC1

Output:
1.59
4.10
1.36
1.20
1.90

====

- subjectOfTest: C-X-C chemokine receptor type 3 (Homo sapiens, UniProt P49682)
- methodDescription: Antagonist activity at human CXCR3
measuredProperty: IC50 (nM)
Numbers only, in nM.

Worked cases, answers included:
[
  {
    "molecule": "CNC(=O)c1cnc(N2CCN(C3CCN(Cc4ccc(F)cc4Cl)CC3)[C@@H](C)C2)c(Cl)c1",
    "unitsLabel": "nM",
    "IC50": 58
  },
  {
    "molecule": "CCNC(=O)c1cnc(N2CCN(C3CCN(Cc4ccc(Cl)cc4)CC3)[C@@H](C)C2)c(Cl)c1",
    "unitsLabel": "nM",
    "IC50": 2.3
  }
]

Next molecule, IC50 to be filled in.
Task: Endpoint output: IC50 of CNC(=O)c1cnc(N2CCN(C3CCN(C4CCc5cc(Cl)ccc54)CC3)[C@@H](C)C2)c(Cl)c1 (single isomer, unassigned; isomer 1) . Value?
Output: 29

====

- methodDescription: AUC in Sprague-Dawley rat at 5 mg/kg, po after 24 hrs
- Type: ADME, organism-based
- Set-up: time < 24 hr, dose 5 mg/kg, route oral
- runParameters: plasma
measuredProperty: AUC at 24 h

Task: Endpoint output: AUC at 24 h of C[C@H]1CN(c2ncc(C(=O)NCc3ccc(F)c(F)c3)cc2Cl)CCN1C1CCN(Cc2ccc(Cl)cc2)CC1 . Value?
Output: 1.1 µM·h

====

- subjectOfTest: C-X-C chemokine receptor type 3 (Homo sapiens)
- methodDescription: Antagonist activity at human CXCR3
pIC50: −log10 of the molar value.
pIC50 vs 6: at or above is TRUE, below is FALSE.

Solved entries:
[
  {
    "molecule": "C[C@H]1CN(c2ncc(C(=O)NCC3CCCCC3)cc2Cl)CCN1C1CCN(Cc2ccc(Cl)cc2)CC1",
    "classification": "TRUE"
  },
  {
    "molecule": "CNC(=O)c1cnc(N2CCN(C3CCN(Cc4ccccn4)CC3)[C@@H](C)C2)c(Cl)c1",
    "classification": "FALSE"
  }
]

We now examine a further molecule.
Task: Dear colleague, could you confirm whether C[C@H]1CN(c2ncc(C(=O)NCc3ccc(F)c(F)c3)cc2Cl)CCN1C1CCN(Cc2ccc(Cl)cc2)CC1 has pIC50 at or above 6?
Output: TRUE

====

- subjectOfTest: C-X-C chemokine receptor type 3 (Homo sapiens)
- methodDescription: Antagonist activity at human CXCR3
measuredProperty: IC50 (nM)
Answers are plain numbers, in nM.

Provide IC50 values for the following items, in order.
1. CNC(=O)c1cnc(N2CCN(C3CCN(Cc4ccc(Cl)cc4)CC3)C(C(=O)NC)C2)c(Cl)c1 (stereo not drawn)
2. CNC(=O)c1cnc(N2CCN(C3CCN(C(C)c4ccc(Cl)cc4)CC3)[C@@H](C)C2)c(Cl)c1 (stereo in doubt; 6l)
3. O=C(NCc1ccc(Cl)c(Cl)c1)c1cnc(N2CCN(C3CCN(Cc4ccc(Cl)cc4)CC3)CC2)c(Cl)c1
4. C[C@H]1CN(c2ncc(C(=O)N3CCCCC3)cc2Cl)CCN1C1CCN(Cc2ccc(Cl)cc2)CC1

Output:
[8900, 110, 35, 900]

Provide IC50 values for the following items, in order.
1. CNC(=O)c1cnc(N2CCN(C3CCN(Cc4ccc(Cl)cc4)C(C)C3)CC2)c(Cl)c1 (stereo not drawn)
2. CNC(=O)c1cnc(N2CCC(N3CCN(Cc4ccc(Cl)cc4)C[C@H]3C)CC2)c(Cl)c1
3. CNC(=O)c1cnc(N2CCN(C3CCN(C(C)c4ccc(Cl)cc4)CC3)[C@@H](C)C2)c(Cl)c1 (single isomer, unassigned; isomer 1)

Output:
31
7350
5

====

- subjectOfTest: C-X-C chemokine receptor type 3 (Mus musculus, UniProt O88410)
- Sequence (O88410 whole entry): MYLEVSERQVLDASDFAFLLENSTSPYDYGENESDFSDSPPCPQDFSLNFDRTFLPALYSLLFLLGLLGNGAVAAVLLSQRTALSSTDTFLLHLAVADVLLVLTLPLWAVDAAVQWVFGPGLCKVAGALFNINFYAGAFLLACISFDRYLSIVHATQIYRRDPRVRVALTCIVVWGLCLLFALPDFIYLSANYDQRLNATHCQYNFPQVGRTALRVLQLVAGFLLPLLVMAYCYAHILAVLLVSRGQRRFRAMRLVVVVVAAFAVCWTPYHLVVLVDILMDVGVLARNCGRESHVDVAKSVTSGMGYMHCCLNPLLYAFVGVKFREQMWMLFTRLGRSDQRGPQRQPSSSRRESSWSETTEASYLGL
- methodDescription: Antagonist activity at mouse CXCR3
measuredProperty: pIC50
Numbers only, as −log10 of the molar value.

Worked cases, answers included:
[
  {
    "chemSmiles": "CCNC(=O)c1cnc(N2CCN(C3CCN(Cc4ccc(Cl)cc4)CC3)[C@@H](CC)C2)c(Cl)c1",
    "pIC50": 9.30
  },
  {
    "chemSmiles": "CCNC(=O)c1cnc(N2CCN(C3CCN(Cc4ccc(Cl)cc4F)CC3)[C@@H](CC)C2)c(Cl)c1",
    "pIC50": 8.96
  },
  {
    "chemSmiles": "C[C@H]1CN(c2ncc(C(=O)NCc3ccc(F)c(F)c3)cc2Cl)CCN1C1CCN(Cc2ccc(Cl)cc2)CC1",
    "pIC50": 8.17
  }
]

Next molecule, pIC50 to be filled in.
Task: Endpoint output: pIC50 of O=C(NCc1ccc(F)c(F)c1)c1cnc(N2CCN(C3CCN(Cc4ccc(Cl)cc4)CC3)CC2)c(Cl)c1 . Value?
Output: 7.08

====

Would you mind telling me the reported AUC at 6 h of each entry?
- methodDescription: AUC in Sprague-Dawley rat at 10 mg/kg, po after 6 hrs
- Type: ADME, organism-based
- Parameters: time < 6 hr, dose 10 mg/kg, route oral
- runParameters: plasma
Please give the number followed by its unit.

[
  {
    "chemSmiles": "C[C@H]1CN(c2ncc(C(=O)NCc3ccc(F)c(F)c3)cc2Cl)CCN1C1CCN(Cc2ccc(Cl)cc2)CC1",
    "AUC at 6 h": "0.5 µM·h"
  },
  {
    "chemSmiles": "CCNC(=O)c1cnc(N2CCN(C3CCN(Cc4ccc(Cl)cc4F)CC3)[C@@H](CC)C2)c(Cl)c1",
    "AUC at 6 h": "0.95 µM·h"
  }
]

Next compound, AUC at 6 h to be filled in.
Task: Endpoint output: AUC at 6 h of CCNC(=O)c1cnc(N2CCN(C3CCN(Cc4ccc(Cl)cc4)CC3)[C@@H](CC)C2)c(Cl)c1 . Value?
Output: 0.41 µM·h

====

- subjectOfTest: C-X-C chemokine receptor type 3 (Homo sapiens, UniProt P49682)
- methodDescription: Antagonist activity at human CXCR3
Would you mind telling me the reported IC50 of each entry?

[
  {
    "compound": "CCNC(=N)c1cnc(N2CCN(C3CCN(Cc4ccc(Cl)cc4)CC3)[C@@H](C)C2)c(Cl)c1",
    "resultValue": "83 nM"
  },
  {
    "compound": "CC(C)NC(=O)c1cnc(N2CCN(C3CCN(Cc4ccc(Cl)cc4)CC3)[C@@H](C)C2)c(Cl)c1",
    "resultValue": "5 nM"
  },
  {
    "compound": "CC1CN(C2CCN(Cc3ccc(Cl)cc3)CC2)CCN1c1ccc(C(=O)NCc2ccc(F)c(F)c2)cn1 (centres undefined)",
    "resultValue": "2700 nM"
  }
]

Next compound, IC50 to be filled in.
Task: API: value(readout= IC50, system= C-X-C chemokine receptor type 3 (Homo sapiens, UniProt P49682), query= O=C(NCc1ccc(F)c(F)c1)c1cnc(N2CCN(C3CCN(Cc4ccc(Cl)cc4)CC3)C(=O)C2)c(Cl)c1 )
Output: 1400 nM
